experiment: physchem; conditions: organic solvent or mixture, Solubility in Diethylene Glycol Monoethyl Ether
assay-endpoint: solubility (mg/mL)
Respond numerically; units are mg/mL and should not be typed.

molecule	solubility, mg/mL
C[C@]12CC[C@H]3[C@@H](CCC4=CC(=O)CC[C@@]43C)[C@@H]1CC[C@@H]2OC(=O)CCC1CCCC1 [Testosterone Cypionate]	50
CCCCCCC(=O)O[C@H]1CC[C@H]2C3CCC4=CC(=O)CCC4(C)[C@H]3CCC12C (some centres unmarked) [Testosterone Enanthate, Testosterone enanthate]	55.5
CC(=O)O[C@H]1C(=O)[C@@]2(C)[C@H]([C@H](OC(=O)c3ccccc3)[C@]3(O)CC(OC(=O)[C@H](O)[C@@H](NC(=O)c4ccccc4)c4ccccc4)C(C)=C1C3(C)C)[C@]1(OC(C)=O)CO[C@@H]1C[C@@H]2O (some centres unmarked)	23.8

The reported solubility of the molecule COc1cc([C@@H]2c3cc4c(cc3[C@@H](O[C@@H]3O[C@@H]5CO[C@@H](C)O[C@H]5[C@H](O)[C@H]3O)[C@H]3COC(=O)[C@H]23)OCO4)cc(OC)c1O [Etoposide] was 30

# solubility (molecule: CCOC(=O)O[C@]1(C(=O)OCCl)CC[C@H]2[C@@H]3CCC4=CC(=O)C=C[C@]4(C)[C@H]3[C@@H](O)C[C@@]21C ) is 25

====

assay: physchem; settings: organic solvent or mixture
assay-endpoint: solubility

Record CC(=O)[C@H]1CC[C@H]2[C@@H]3CCC4=CC(=O)CC[C@]4(C)[C@H]3CC[C@]12C , field solubility: ≤ 100 mg/mL

====

experiment: Solubility of pharmaceutical actives in Diethylene glycol monoethyl ether; settings: Diethylene glycol monoethyl ether, organic solvent or mixture, Solubility in Diethylene Glycol Monoethyl Ether
solubility reference
Numbers only here, please. The scale is mg/mL.

molecule	reported
CCOC(=O)C1=C[C@]2(CC)CCCN3CCc4c(n1c1ccccc41)[C@@H]32 [Vinpocetine]	12

The value of solubility measured for the molecule CO[C@H]1O[C@@H]2O[C@@]3(C)CC[C@H]4[C@H](C)CC[C@@H]([C@H]1C)[C@@]24OO3 [Artemether] turned out to be 100

// sample NC[C@H]1O[C@H](O[C@H]2[C@H](O)[C@@H](O[C@H]3O[C@H](CO)[C@@H](O)[C@H](N)[C@H]3O)[C@H](N)C[C@@H]2N)[C@H](N)C[C@@H]1O [Tobramycin] , its solubility was 3

Measured solubility of CCN1CCCC1CNC(=O)c1cc(S(=O)(=O)CC)c(N)cc1OC (stereo not drawn) [Amilsulpride] : 25

GET /value?item= Cc1ccc(-c2cc(C(F)(F)F)nn2-c2ccc(S(N)(=O)=O)cc2)cc1 [Celecoxib] &field=solubility returns 71.4

solubility recorded for this molecule, CC(=O)O[C@@]12CO[C@@H]1C[C@H](O)[C@@]1(C)C(=O)[C@H](O)C3=C(C)[C@@H](OC(=O)[C@H](O)[C@@H](NC(=O)OC(C)(C)C)c4ccccc4)C[C@@](O)([C@@H](OC(=O)c4ccccc4)[C@H]21)C3(C)C [Docetaxel] , is 55

====

test: Solubility of pharmaceutical actives in Diethylene glycol monoethyl ether; details: Diethylene glycol monoethyl ether, organic solvent or mixture, Solubility in Diethylene Glycol Monoethyl Ether
Measured solubility, listed per entry.
Give the value in mg/mL but do not write mg/mL after it.

compound	assay-endpoint	reported
CN(C/C=C/C#CC(C)(C)C)Cc1cccc2ccccc12	solubility	16.7

# solubility of C[C@]12CC[C@@H]3c4ccc(O)cc4C[C@@H](CCCCCCCCC[S+]([O-])CCCC(F)(F)C(F)(F)F)[C@H]3[C@@H]1CC[C@@H]2O (stereo partly drawn) = 58.8

====

The compounds listed here are annotated with their solubility.
assay: physchem; settings: organic solvent or mixture, Solubility in Diethylene Glycol Monoethyl Ether
Write down the numeric answer in mg/mL and omit the unit.

Guide cases for solubility, answers given:
compound	readout-unit	solubility
CCN[C@H]1CN(CCCOC)S(=O)(=O)c2sc(S(N)(=O)=O)cc21 [Brinzolamide]	mg/mL	55.6
CCCCC[C@H](O)/C=C/[C@H]1[C@H](O)CC(=O)[C@@H]1CCCCCCC(=O)O [Prostaglandin E1 (Alprostadil)]	mg/mL	50

The compound listed as O=C(CCCN1CCC(O)(c2ccc(Cl)cc2)CC1)c1ccc(F)cc1 has a reported solubility of 8.3

====

experiment: Viscosity of formulations prepared in Diethylene glycol monoethyl ether and of comparators; assay type: physicochemical; details: final solution/formulation; marketed comparators
assay-endpoint: Viscosity (cps)
Give the value in cps but do not write cps after it.

smiles-entry	Viscosity, cps
CN1C(C(=O)Nc2ccccn2)=C(O)c2ccccc2S1(=O)=O	3.365

Kindly review the next compound as well.
// sample C[C@@H](c1ncncc1F)[C@](O)(Cn1cncn1)c1ccc(F)cc1F , its Viscosity was 2.977

The measured values listed here are drawn from patent US9827315B2.
